- System: SK-MEL-5 melanoma
- procedure.summary: NCI-60 one-dose screen, 48 h (100 = growth as untreated, 0 = no growth, -100 = all killed)
- recorded.conditions: 10 µM unless noted
- Experimental: Growth inhibition of the SK-MEL-5 human tumor cell line is measured as a screen for anti-cancer activity. Cells are grown in 96 well plates and exposed to the test compound for 48 hours. Compounds are tested at a single concentration, which is 10^-5 M for most compounds. The reported endpoint is percent growth (GI% or GIPRCNT), where numbers from 0 - 100% represent growth inhibition, and numbers from -100% - 0 represent cell death. For example, a value of 40 represents 60% growth inhibition. […]
The panel holds about 83,000 compounds, 20% with a hit somewhere; the sample as a whole holds those more often.
Classify by measured growth: YES if it is equal to or exceeds 80%, NO if it is smaller.

These recorded examples may help you get a feel for the data.
Textbook exercise: given the entry O=C1c2cccc3cccc(c23)C(=O)N1CCCCN1CCN(CCCCOc2ccc(-c3nc4ccc(N5CCOCC5)cc4[nH]3)cc2)CC1 , state whether its growth is greater than or equal to 80%.
YES

Textbook exercise: given the entry Brc1ccc(-c2csc(Nc3ccccn3)n2)cc1 , state whether its growth is greater than or equal to 80%.
NO

Textbook exercise: given the entry CC(C)CSc1nc(N)nc2c1ncn2C1OC(CO)C(O)C1O (stereo not given) , state whether its growth is greater than or equal to 80%.
YES

Textbook exercise: given the entry NC(N)=N/N=C(/c1ccccc1)c1ccc(F)cc1 , state whether its growth is greater than or equal to 80%.
NO

--- query ---
Textbook exercise: given the entry Cn1c(O)c(N=NC(=O)c2cc(-c3ccccc3)on2)c2ccccc21 , state whether its growth is greater than or equal to 80%.
YES

Entry source: PubChem BioAssay (NCI)
